The origin of these recorded values is PubChem BioAssay.

# System: glycogen synthase kinase-3 (GSK3A per assay name; protocol says GSK3B)
# METHOD NOTES: compounds binding glycogen synthase kinase-3 – biochemical, small-molecule microarray, 635 nm fluorescence, GSK3A, primary screen (AID 1103); also: the record names both GSK3A and GSK3B
# CONDITION DESCRIPTION: fluorescence 635 nm, higher = more signal
Could you please report measured composite z-score for the items listed next?
In your answer, state the number alone without any accompanying words.

Ask: Read off the recorded composite z-score for COc1cc2c(cc1O)C(c1ccc(CN3CCCC3)cc1)N(Cc1sc3ccccc3c1Cl)CC2 (stereo not given)
Result: -0.111

Ask: Read off the recorded composite z-score for O=C1C2C=CC(C(O)c3ccccn3)N(Nc3ccccc3F)C2C(=O)N1c1ccccc1 (stereo not given)
Result: -0.0392

Ask: Read off the recorded composite z-score for CN1C(=O)C2C=CC(C(O)C=Cc3ccc([N+](=O)[O-])cc3)N(N3CCCCC3)C2C1=O (stereo not given)
Result: 1.28

Ask: Read off the recorded composite z-score for `CCCNC(=O)[C@@]1(C)c2ccccc2C(=O)N(C(C)C)[C@H]1c1ccc(CO)cc1`
Result: -0.743

Ask: Read off the recorded composite z-score for `C[N+](C)(C)CCCCNC(=O)[C@H]1C[C@H]2C(=O)N3CCC[C@H]3C(=O)N2[C@H]1c1ccc(O)cc1`
Result: 0.521
